System: L1210 leukemia ip in BDF1 mice, survival T/C
Assay: NCI In Vivo Anticancer Drug Screen. Data for tumor model L1210 Leukemia (intraperitoneal) in B6D2F1 (BDF1) mice
Conditions: endpoint: mean survival time; dose: 200.0 mg/kg/injection; schedule: Q04DX003 (ip); vehicle: saline with Tween-80; higher = longer survival
Toxic doses and inconclusive results are not listed.
Quantity Measured: T/C

Check out these entries, answers already filled in.
- Molecule: "O=C(Nc1ccc(Cl)c([N+](=O)[O-])c1)OCCOc1ccccc1"
  T/C: "105 % of control"
- Molecule: "NC(CS(=O)c1ccc([N+](=O)[O-])cc1Cl)C(=O)O (stereo unspecified)"
  T/C: "95 % of control"
- Molecule: "Cc1cnccc1N=Nc1ccc(N(C)C)cc1"
  T/C: "104 % of control"
- Molecule: "O=C(CCCl)NC1CC1c1ccccc1 (stereo unspecified)"
  T/C: "97 % of control"
- Molecule: "CC(=O)Nc1cc([N+](=O)[O-])c(C)c([N+](=O)[O-])c1"
  T/C: "97 % of control"

The molecule listed as `c1cc(C2CCCCC2)ccc1-c1ccc(C2CCCCC2)cc1` has a reported T/C of 101 % of control

Measured T/C, `Cc1cccc(NC(=O)c2ccccc2)n1` : 95 % of control

====

Reported values of T/C for individual entries
Test system: L1210 leukemia ip in BDF1 mice, survival T/C
Assay: NCI In Vivo Anticancer Drug Screen. Data for tumor model L1210 Leukemia (intraperitoneal) in B6D2F1 (BDF1) mice
Settings: endpoint: mean survival time; dose: 400.0 mg/kg/injection; schedule: Q01DX001 (ip); vehicle: other; higher = longer survival
Toxic doses and inconclusive results are not listed.

Worked examples, 10 molecules total:
- Molecule: "CCCCCC#CC(O)(C(=O)OC)c1ccccc1 (stereo not given)"
  Val: "100 % of control"
- Molecule: "Cc1nnc(N)s1"
  Val: "100 % of control"
- Molecule: "O=C1CC(c2ccc(O)cc2)CC(=O)C1C(=O)Nc1ccccc1 (stereo not given)"
  Val: "97 % of control"
- Molecule: "N=C(CC(=O)Nc1ccccn1)c1ccccc1"
  Val: "89 % of control"
- Molecule: "CN1c2ccc(Br)c[c]2[Sn]([CH3])([CH3])[c]2cc(Br)ccc21"
  Val: "92 % of control"
- Molecule: "CCOc1ccc(NC(=O)N(O)C2(C#N)CCCCC2)cc1"
  Val: "93 % of control"
- Molecule: "CC(C(O)c1cc(=O)n(C)c2ccccc12)[N+](=O)[O-] (stereo not given)"
  Val: "101 % of control"
- Molecule: "O=C(NC(Cc1ccc(O)cc1)C(=O)O)SCc1ccccc1 (stereo not given)"
  Val: "102 % of control"
- Molecule: "Cc1[nH]c2c(C)ccc(C)c2c(=O)c1Br"
  Val: "86 % of control"
- Molecule: "CC(C)c1ccc(C2(C)CCCCC2=O)cc1 (stereo not given)"
  Val: "93 % of control"

For this molecule ( `Cc1cc(=O)c2c(C)ccc(C)c2[nH]1` ), measured T/C is 98 % of control

Form field T/C, entry c1cc(OCC2CO2)ccc1OCC1CO1 (stereo not given) : 121 % of control

CC(NS(=O)(=O)Cc1ccccc1)C(=O)O (stereo not given) has a reported T/C of 104 % of control

Given item `O=C(c1ccc([N+](=O)[O-])cc1)c1ccc(O)cc1O` , the value recorded as its T/C is 103 % of control

Quick note, T/C for `O=[N+]([O-])c1ccc(CCc2ccc([N+](=O)[O-])cc2)cc1` landed at 95 % of control

====

Some molecules, each annotated with its measured T/C.
Tested on: L1210 leukemia ip in BDF1 mice, survival T/C
Experiment: NCI In Vivo Anticancer Drug Screen. Data for tumor model L1210 Leukemia (intraperitoneal) in B6D2F1 (BDF1) mice
Conditions: endpoint: mean survival time; dose: 100.0 mg/kg/injection; schedule: Q04DX003 (ip); vehicle: Klucel (hydroxypropylcellulose) (HPC); higher = longer survival
Inconclusive results and toxic doses are left out.

Solved entries:
- Molecule: "CN(C)c1ccc(/C=C/c2nc3ccc([N+](=O)[O-])cc3[nH]2)cc1"
  T/C: "97 % of control"
- Molecule: "O=C(Nc1ccc(Nc2ccncc2)cc1)c1ccc([N+](=O)[O-])cc1"
  T/C: "103 % of control"
- Molecule: "CN(C)c1ccc(/C=C(\\C#N)c2nc3ccccc3[nH]2)cc1"
  T/C: "91 % of control"
- Molecule: "O=P(Cc1ccccc1)(C(O)c1ccccc1)C(O)c1ccccc1 (configuration not stated)"
  T/C: "87 % of control"
- Molecule: "Cc1c(Cl)cccc1NC(=O)c1ccc(Cl)cc1"
  T/C: "93 % of control"
- Molecule: "COc1ccccc1OCCOCCNC1CC2CCC1(C)C2(C)C (configuration not stated)"
  T/C: "88 % of control"
- Molecule: "CCOc1ccc2[nH]c(=S)sc2c1"
  T/C: "105 % of control"
- Molecule: "CN(C)C(=O)Oc1c(Cl)cccc1Cl"
  T/C: "97 % of control"

Known value: L1210 leukemia ip in BDF1 mice, survival T/C T/C of the molecule CC(=O)C(C#N)c1ccccc1 (configuration not stated) equals 97 % of control

Kindly note: L1210 leukemia ip in BDF1 mice, survival T/C, `CCCCCCCCCCCCCCCCS(=O)(=O)N/N=C(/c1ccc(N)cc1Cl)N1CCCCC1` , T/C value reported: 86 % of control

Case `CC(=O)CC(=O)Nc1ccc(-c2ccc(NC(=O)CC(C)=O)c(Cl)c2)cc1Cl` , L1210 leukemia ip in BDF1 mice, survival T/C, T/C recorded as 98 % of control

Form: item `O=C(COc1cccc(Cl)c1)Nc1cccnc1` ; test system L1210 leukemia ip in BDF1 mice, survival T/C; T/C: 93 % of control

====

Test system: L1210 leukemia ip in BDF1 mice, survival T/C
Assay: NCI In Vivo Anticancer Drug Screen. Data for tumor model L1210 Leukemia (intraperitoneal) in B6D2F1 (BDF1) mice
Conditions: endpoint: mean survival time; dose: 200.0 mg/kg/injection; schedule: Q04DX003 (ip); vehicle: Klucel (hydroxypropylcellulose) (HPC); higher = longer survival
Toxic doses and inconclusive results are not listed.
Parameter T/C: see the listing below.

Worked examples, 10 compounds total:
- Compound: "Cc1ccc(NC(=O)OCCN2CCNC2=S)c([N+](=O)[O-])c1"
  Quantity Measured: "T/C"
  Val: "91 % of control"
- Compound: "O=c1[nH]c2ccccc2n1C1CCN(CCCC(c2ccc(F)cc2)c2ccc(F)cc2)CC1"
  Quantity Measured: "T/C"
  Val: "109 % of control"
- Compound: "CC1(C)Cc2ccccc2C(c2nccc3ccccc23)=N1"
  Quantity Measured: "T/C"
  Val: "118 % of control"
- Compound: "O=C(Nc1cccc(C(F)(F)F)c1)N(CCO)Cc1ccccc1"
  Quantity Measured: "T/C"
  Val: "99 % of control"
- Compound: "COc1ccc2c(c1)CN(S(=O)(=O)c1ccc(C)cc1)CCC2O (stereo unspecified)"
  Quantity Measured: "T/C"
  Val: "114 % of control"
- Compound: "O=S(=O)(NC1CCC(CC2CCCCC2)CC1)c1ccccc1 (stereo unspecified)"
  Quantity Measured: "T/C"
  Val: "97 % of control"
- Compound: "Brc1c(-c2ccccc2)cc(-c2ccccc2)cc1-c1ccccc1"
  Quantity Measured: "T/C"
  Val: "93 % of control"
- Compound: "c1ccc(-c2cc3ccccc3[nH]2)nc1"
  Quantity Measured: "T/C"
  Val: "93 % of control"
- Compound: "CCC(C)C(C#N)(CCN(CC=C(C)C)CC=C(C)C)c1cccc2ccccc12 (stereo unspecified)"
  Quantity Measured: "T/C"
  Val: "110 % of control"
- Compound: "CN(C)c1ccc(/C=C/c2nc3ccc([N+](=O)[O-])cc3[nH]2)cc1"
  Quantity Measured: "T/C"
  Val: "102 % of control"

The recorded T/C for entry `O=NN(c1ccccc1)c1ccc(N(N=O)c2ccccc2)cc1` equals 100 % of control

Lookup result for `C=CCc1ccccc1NC(=O)NCCCl` ; measured T/C: 104 % of control

The compound `Cc1ccc(S(=O)(=O)N(CCO)CCO)cc1` showed T/C equal to 100 % of control

Field T/C (entry `NN(c1ccccc1)c1ccc2ccccc2c1` ) reads 93 % of control

Lab note: measured T/C of `Cc1ccc(S(=O)(=O)N(C)c2ccc3cc(Br)ccc3c2)cc1` was 97 % of control

Item: `Cc1ccc(NC(=O)c2ccc(Cl)cc2)cc1` | T/C: 103 % of control

For record `CSc1ccccc1C(=O)NNS(=O)(=O)c1ccc(C)cc1` the listed T/C is 97 % of control

Noted for CCC(OO)(C1=NC(C)(C)CO1)c1ccncc1Br (stereo unspecified) : its T/C reads 101 % of control

Reported T/C ( `COc1ccc(C2=CN(S(=O)(=O)c3ccc(C)cc3)CCc3ccccc32)cc1` ) = 102 % of control

T/C recorded for this compound, `CC(C)CC(=O)Nc1ccccc1` , is 101 % of control

Record summary for O=P(Cc1ccccc1)(C(O)c1ccccc1)C(O)c1ccccc1 (stereo unspecified) : reported T/C = 91 % of control

Where these numbers come from: PubChem BioAssay AID248
